Attribution: patent US20230046728A1

Quick list: Mass Shifted Peptide Signal in Cells per entry.
Test system: Expi293 cells transfected with His-Halotag
assay text: Library cell penetration assay, cell crash method (Example 6)
Type: in vitro ADME, human
test conditions: library pool tested as mixture, MS signal of —OH agent
Experimental: Animal cells (e.g., Expi293 cells or human HEK 293 cells) were seeded in tissue culture plates and cultured in Opti-MEM media. The cells were set in PETG flasks at a concentration of 6×10^5 cells/mL and a volume of 30 mL. The cell viability was checked to be above 90-93%. The flasks were placed in a shaking incubator at 300 rpm in 8% CO2. After 24 hours of incubation, for each flask, one 1.5-mL Lo-bind tube and one 2-mL Lo-Bind tube were prepared. […]
When you answer, write just the number.

Noted for CC(C)C[C@H](NC(=O)CCC(=O)NCCOCCOCCCCCCCl)C(=O)N[C@H](C(=O)N[C@@H](Cc1ccccc1)C(=O)N[C@]1(C)CCCCCCC=CCCC[C@@](C)(C(=O)N[C@@H](CO)C(=O)N[C@@H](C)C(=O)N[C@@H](C)C(N)=O)NC(=O)[C@H](CC2CCC2)NC(=O)[C@H](CCC(N)=O)NC(=O)[C@H](C)NC(=O)[C@H](Cc2c[nH]c3ccccc23)NC(=O)[C@H](Cc2ccc(O)cc2)NC(=O)[C@H]([C@@H](C)O)NC1=O)[C@@H](C)O : its Mass Shifted Peptide Signal in Cells reads 4E+07

Noted for CNC(=O)[C@H](C)NC(=O)[C@H](C)NC(=O)[C@H](CO)NC(=O)[C@]1(C)CCCC=CCCCCCC[C@@](C)(NC(=O)[C@H](Cc2ccccc2)NC(=O)[C@@H](NC(=O)[C@H](CC(C)C)NC(=O)CCC(=O)NCCOCCOCCCCCCCl)[C@@H](C)O)C(=O)N[C@@H]([C@@H](C)O)C(=O)N[C@@H](Cc2ccc(O)cc2)C(=O)N[C@@H](Cc2c[nH]c3ccccc23)C(=O)N[C@@H](C)C(=O)N[C@@H](CCC(N)=O)C(=O)N[C@@H](CC2CCC2)C(=O)N1 : its Mass Shifted Peptide Signal in Cells reads 2E+07

Noted for CC(C)C[C@H](NC(=O)CCC(=O)NCCOCCOCCCCCCCl)C(=O)N[C@H](C(=O)N[C@@H](Cc1ccccc1)C(=O)N[C@]1(C)CCCCCCC=CCCC[C@@](C)(C(=O)N[C@@H](CO)C(=O)N[C@@H](C)C(=O)N[C@@H](C)C(N)=O)NC(=O)[C@H](CC2CCC2)NC(=O)[C@H](CCC(N)=O)NC(=O)[C@H](C)NC(=O)[C@H](Cc2c[nH]c3ccccc23)NC(=O)[C@H](Cc2ccc(O)cc2)NC(=O)[C@H](C)NC1=O)[C@@H](C)O : its Mass Shifted Peptide Signal in Cells reads 4E+07

Noted for CC(C)C[C@H](NC(=O)CCC(=O)NCCOCCOCCCCCCCl)C(=O)N[C@H](C(=O)N[C@@H](Cc1ccccc1)C(=O)N[C@]1(C)CCCCCCC=CCCC[C@@](C)(C(=O)N[C@@H](CO)C(=O)N[C@@H](C)C(=O)N[C@@H](C)C(N)=O)NC(=O)[C@H](CC2CCC2)NC(=O)[C@H](CCC(N)=O)NC(=O)[C@H](C)NC(=O)[C@H](Cc2c[nH]c3ccccc23)NC(=O)[C@H](Cc2ccc(O)cc2)NC(=O)[C@H](CCC(=O)O)NC1=O)[C@@H](C)O : its Mass Shifted Peptide Signal in Cells reads 8E+07

Noted for CC(C)C[C@H](NC(=O)CCC(=O)NCCOCCOCCCCCCCl)C(=O)N[C@H](C(=O)N[C@@H](Cc1ccccc1)C(=O)N[C@]1(C)CCCCCCC=CCCC[C@@](C)(C(=O)N[C@@H](CO)C(=O)N[C@@H](C)C(=O)N[C@@H](C)C(N)=O)NC(=O)[C@H](CC2CCC2)NC(=O)[C@H](C)NC(=O)[C@H](C)NC(=O)[C@H](Cc2c[nH]c3ccccc23)NC(=O)[C@H](Cc2ccc(O)cc2)NC(=O)[C@H](CCC(=O)O)NC1=O)[C@@H](C)O : its Mass Shifted Peptide Signal in Cells reads 9E+07

Noted for CNC(=O)[C@H](C)NC(=O)[C@H](C)NC(=O)[C@H](CO)NC(=O)[C@]1(C)CCCC=CCCCCCC[C@@](C)(NC(=O)[C@H](Cc2ccccc2)NC(=O)[C@@H](NC(=O)[C@H](CC(C)C)NC(=O)CCC(=O)NCCOCCOCCCCCCCl)[C@@H](C)O)C(=O)N[C@@H](C)C(=O)N[C@@H](Cc2ccc(O)cc2)C(=O)N[C@@H](Cc2c[nH]c3ccccc23)C(=O)N[C@@H](C)C(=O)N[C@@H](CCC(N)=O)C(=O)N[C@@H](CC2CCC2)C(=O)N1 : its Mass Shifted Peptide Signal in Cells reads 2E+07

###

System: Expi293 cells transfected with His-Halotag
assay text: Library cell penetration assay, cell crash method (Example 6)
Format: in vitro ADME, human
test conditions: Mass Shifted Peptide Signal in Cells divided by Theoretical Max Signal per replicate pair, averaged
measurement type: Cell Penetration Score
When you answer, write just the number.

Noted for CC(C)C[C@H](NC(=O)CCC(=O)NCCOCCOCCCCCCCl)C(=O)N[C@H](C(=O)N[C@@H](Cc1ccccc1)C(=O)N[C@]1(C)CCCCCCC=CCCC[C@@](C)(C(=O)N[C@@H](CO)C(=O)N[C@@H](C)C(=O)N[C@@H](C)C(N)=O)NC(=O)[C@H](CC2CCC2)NC(=O)[C@H](CCC(N)=O)NC(=O)[C@H](C)NC(=O)[C@H](Cc2c[nH]c3ccccc23)NC(=O)[C@H](Cc2ccc(O)cc2)NC(=O)[C@H](CCC(=O)O)NC1=O)[C@@H](C)O : its Cell Penetration Score reads 1141

###

Test system: Expi293 cells transfected with His-Halotag
assay text: Library cell penetration assay, cell crash method (Example 6)
Assay type: in vitro ADME, human
test conditions: Mass Shifted Peptide Signal in Cells divided by Mass Shifted Peptide Theoretical Max Signal, averaged across replicates
Protocol: Animal cells (e.g., Expi293 cells or human HEK 293 cells) were seeded in tissue culture plates and cultured in Opti-MEM media. The cells were set in PETG flasks at a concentration of 6×10^5 cells/mL and a volume of 30 mL. The cell viability was checked to be above 90-93%. The flasks were placed in a shaking incubator at 300 rpm in 8% CO2. After 24 hours of incubation, for each flask, one 1.5-mL Lo-bind tube and one 2-mL Lo-Bind tube were prepared. […]
measurement type: Cell Penetration Score
When you answer, write just the number.

Use these answered entries as a reference point.
compound	recorded measurement
CNC(=O)[C@H](C)NC(=O)[C@H](C)NC(=O)[C@H](CO)NC(=O)[C@]1(C)CCCC=CCCCCCC[C@@](C)(NC(=O)[C@H](Cc2ccccc2)NC(=O)[C@@H](NC(=O)[C@H](CC(C)C)NC(=O)CCC(=O)NCCOCCOCCCCCCCl)[C@@H](C)O)C(=O)N[C@@H](CCC(=O)O)C(=O)N[C@@H](Cc2ccc(O)cc2)C(=O)N[C@@H](Cc2c[nH]c3ccccc23)C(=O)N[C@@H](C)C(=O)N[C@@H]([C@@H](C)O)C(=O)N[C@@H](CC2CCC2)C(=O)N1 [PEP000126]	561
CNC(=O)[C@H](C)NC(=O)[C@H](C)NC(=O)[C@H](CO)NC(=O)[C@]1(C)CCCC=CCCCCCC[C@@](C)(NC(=O)[C@H](Cc2ccccc2)NC(=O)[C@@H](NC(=O)[C@H](CC(C)C)NC(=O)CCC(=O)NCCOCCOCCCCCCCl)[C@@H](C)O)C(=O)N[C@@H](CCC(=O)O)C(=O)N[C@@H](Cc2ccc(O)cc2)C(=O)N[C@@H](Cc2c[nH]c3ccccc23)C(=O)N[C@@H](C)C(=O)N[C@@H](C)C(=O)N[C@@H](CC2CCC2)C(=O)N1 [PEP000124]	745
CC(C)C[C@H](NC(=O)CCC(=O)NCCOCCOCCCCCCCl)C(=O)N[C@H](C(=O)N[C@@H](Cc1ccccc1)C(=O)N[C@]1(C)CCCCCCC=CCCC[C@@](C)(C(=O)N[C@@H](CO)C(=O)N[C@@H](C)C(=O)N[C@@H](C)C(N)=O)NC(=O)[C@H](CC2CCC2)NC(=O)[C@H]([C@@H](C)O)NC(=O)[C@H](C)NC(=O)[C@H](Cc2c[nH]c3ccccc23)NC(=O)[C@H](Cc2ccc(O)cc2)NC(=O)[C@H](CCC(=O)O)NC1=O)[C@@H](C)O [PEP000123]	1083

Turning now to a further record.
Bench note, Expi293 cells transfected with His-Halotag: CNC(=O)[C@H](C)NC(=O)[C@H](C)NC(=O)[C@H](CO)NC(=O)[C@]1(C)CCCC=CCCCCCC[C@@](C)(NC(=O)[C@H](Cc2ccccc2)NC(=O)[C@@H](NC(=O)[C@H](CC(C)C)NC(=O)CCC(=O)NCCOCCOCCCCCCCl)[C@@H](C)O)C(=O)N[C@@H](CCC(=O)O)C(=O)N[C@@H](Cc2ccc(O)cc2)C(=O)N[C@@H](Cc2c[nH]c3ccccc23)C(=O)N[C@@H](C)C(=O)N[C@@H](CCC(N)=O)C(=O)N[C@@H](CC2CCC2)C(=O)N1 (single isomer, unassigned) [PEP000125] , Cell Penetration Score reads 888
